test: Cytotoxicity against human MT4 cells after 5 days by MTT assay; type: cell-based
The reader will find reported CC50 at 120 h values listed item by item below.

In [3]: df
Out[3]:
                                   compound  test_value
0  Cc1cc(C#N)cc(C)c1Oc1nc(Nc2ccc(C#N)cc2)nc2[nH]ccc12   ≥ 1240 nM
1  Cc1cc(C#N)cc(C)c1Oc1nc(Nc2ccc(C#N)cc2)nc(N)c1Br [ETRAVIRINE]   > 4590 nM
2  Cc1cc(C#N)cc(C)c1Oc1nc(Nc2ccc(C#N)cc2)nc2c1ccn2COC(=O)OC(C)C     1050 nM
3  O=C1Nc2ccc(Cl)cc2[C@@](C#CC2CC2)(C(F)(F)F)O1 [EFAVIRENZ]   > 6340 nM

Summary for this compound, Cc1ccnc2c1NC(=O)c1cccnc1N2C1CC1 [NEVIRAPINE] : CC50 at 120 h is > 15000 nM

* * *

assay: Metabolic stability in human plasma assessed as parent compound remaining at 100 uM after 120 mins by LC-MS/MS analysis; type: ADME, cell-free; settings: read-out: Stability
readout.name: remaining at 2 h, 100 µM (%)
Express your answer in %, writing the number without its unit.

Summary for this molecule, CC(C)[N+](C)(CCOC(=O)C1c2ccccc2Oc2ccccc21)C(C)C [PROPANTHELINE] : remaining at 2 h, 100 µM is 0.5

* * *

assay: Metabolic stability in human plasma assessed as parent compound remaining at 100 uM after 10 mins by LC-MS/MS analysis; assay type: ADME, cell-free; details: read-out: Stability
readout.name: remaining at 10 min, 100 µM (%)
Express your answer in %, writing the number without its unit.

Summary for this compound, `CC(C)[N+](C)(CCOC(=O)C1c2ccccc2Oc2ccccc21)C(C)C` : remaining at 10 min, 100 µM is 54.8

* * *

assay: Metabolic stability in human plasma assessed as parent compound remaining at 100 uM after 30 mins by LC-MS/MS analysis; format: ADME, cell-free; conditions: read-out: Stability
readout.name: remaining at 0.5 h, 100 µM (%)
Express your answer in %, writing the number without its unit.

Summary for this compound, `CC(C)[N+](C)(CCOC(=O)C1c2ccccc2Oc2ccccc21)C(C)C` : remaining at 0.5 h, 100 µM is 19.4

* * *

The reader will find reported log10 EC50 values listed item by item below.
test system: Human immunodeficiency virus 1; assay: Antiviral activity against HIV1 3B expressing wild type reverse transcriptase infected in human MT4 cells assessed as protection against virus-induced cytopathic effect after 5 days by MTT assay; format: functional, organism-based; settings: Human immunodeficiency virus 1, 3B, MT4, 120 h
Remember, log10 of EC50, in nM.

Completed entries (count: 3):
>>> df
                                item_smiles  readout_name  test_value
0           Cc1ccnc2c1NC(=O)c1cccnc1N2C1CC1    log10 EC50        2.64
1  Cc1cc(C#N)cc(C)c1Oc1nc(Nc2ccc(C#N)cc2)nc2c1ccn2COC(=O)OC(C)C    log10 EC50        0.74
2  Cc1cc(C#N)cc(C)c1Oc1nc(Nc2ccc(C#N)cc2)nc2[nH]ccc12    log10 EC50        0.46

Summary for this compound, `O=C1Nc2ccc(Cl)cc2[C@@](C#CC2CC2)(C(F)(F)F)O1` : log10 EC50 is 0.68

Summary for this compound, `Cc1cc(C#N)cc(C)c1Oc1nc(Nc2ccc(C#N)cc2)nc(N)c1Br` : log10 EC50 is 0.59
